- target: DNA dC->dU-editing enzyme APOBEC-3G (Homo sapiens, UniProt Q9HC16);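 note: Dose-response counterscreen measuring inhibition of APOBEC3G DNA deaminase activity, run while confirming APOBEC3A inhibitors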
- Sequence (Q9HC16 whole entry): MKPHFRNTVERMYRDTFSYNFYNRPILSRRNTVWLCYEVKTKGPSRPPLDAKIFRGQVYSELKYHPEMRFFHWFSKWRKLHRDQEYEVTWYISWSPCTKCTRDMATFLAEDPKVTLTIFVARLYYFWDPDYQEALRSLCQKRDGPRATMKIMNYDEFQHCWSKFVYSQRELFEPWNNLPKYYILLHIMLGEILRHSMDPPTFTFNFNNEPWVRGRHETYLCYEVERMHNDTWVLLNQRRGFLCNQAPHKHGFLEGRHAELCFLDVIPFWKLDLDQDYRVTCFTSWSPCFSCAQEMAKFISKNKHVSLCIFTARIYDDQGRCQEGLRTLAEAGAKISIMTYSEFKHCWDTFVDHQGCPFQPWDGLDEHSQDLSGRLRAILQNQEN
- Assay type: functional
The source made the active and inactive calls.
reported property: IC50

Prompt line: Check the records and state IC50 for `CCN1CCN(c2ccc(S(=O)(=O)N3CCCCC3)cc2NC(=O)/C=C/c2ccc(OC(F)F)cc2)CC1`
Response line: 7.32 µM (active)

Prompt line: Answer with reported IC50 of `COc1ccccc1N=Nc1[nH]c2ccc(C)cc2c1O`
Response line: 6.6 µM (active)

Prompt line: Using the record for `OCCNC1=NCCN1` , state its measured IC50.
Response line: 1.95 µM (active)

Prompt line: Determine its reported IC50: Cc1ccc2c(c1)C1CN(C)CCC1N2CC(=O)N(C)c1ccccc1 (centres undefined)
Response line: 9.94 µM (active)

###

- Test system: Streptococcus sp. 'group A'
- procedure summary: Streptococcus pyogenes SK(-)GAS viability under kanamycin – luminescence, BacTiterGlo, confirmation, counter-screen for streptokinase expression inhibitor project, dose response (AID 1900)
- Assay type: functional, organism-based
Calls of active or inactive are those of the source.
reported property: EC50

Prompt line: # return EC50 for `CCOc1cc(-c2cc(-c3ccc(NC(C)=O)cc3)nc(N)c2C#N)ccc1O` , test system: Streptococcus sp. 'group A'
Response line: 0.651 µM (active)

Prompt line: Give reported EC50 for CC1=C(C(=O)Nc2ccc([N+](=O)[O-])cc2)C(c2cccc(C(F)(F)F)c2)N=C(S)N1c1ccccc1 (stereo not drawn) (Streptococcus sp. 'group A')
Response line: 7.84 µM (active)

Prompt line: Report value only: EC50, Streptococcus sp. 'group A', `C/C(=N\NC(=O)c1cc2ccccc2cc1O)c1ccc2c(c1)OCO2`
Response line: 3.73 µM (active)

Prompt line: Report EC50 from Streptococcus sp. 'group A' testing of `O=C(N/N=C/c1ccccc1O)c1ccc2c(c1)OCO2`
Response line: 4.24 µM (active)

Prompt line: Fill in EC50 for `Oc1ccc(/C=N/Nc2nc(-c3ccc(Cl)cc3)cc(C(F)(F)F)n2)cc1` tested with Streptococcus sp. 'group A'.
Response line: 12.1 µM (active)

Prompt line: Write EC50 of `COc1ccc(/C=C/C(=O)NC(=S)NNC(=O)Cc2cccs2)cc1` ; system used: Streptococcus sp. 'group A'
Response line: 2.45 µM (active)

Prompt line: Please indicate recorded EC50 of `CCCCSc1nc(C)cc(SCC(=O)N/N=C/c2cccc(OC)c2O)n1` measured with Streptococcus sp. 'group A'.
Response line: 2.31 µM (active)

Prompt line: Fill in: EC50 on Streptococcus sp. 'group A', entry `CC(/C=C1\SC(=O)N(CC(=O)Nc2ccc(O)cc2)C1=O)=C\c1ccccc1`
Response line: 13.8 µM (active)

###

- target: Heat shock factor protein 1 (Mus musculus)
- Sequence (P38532 whole entry): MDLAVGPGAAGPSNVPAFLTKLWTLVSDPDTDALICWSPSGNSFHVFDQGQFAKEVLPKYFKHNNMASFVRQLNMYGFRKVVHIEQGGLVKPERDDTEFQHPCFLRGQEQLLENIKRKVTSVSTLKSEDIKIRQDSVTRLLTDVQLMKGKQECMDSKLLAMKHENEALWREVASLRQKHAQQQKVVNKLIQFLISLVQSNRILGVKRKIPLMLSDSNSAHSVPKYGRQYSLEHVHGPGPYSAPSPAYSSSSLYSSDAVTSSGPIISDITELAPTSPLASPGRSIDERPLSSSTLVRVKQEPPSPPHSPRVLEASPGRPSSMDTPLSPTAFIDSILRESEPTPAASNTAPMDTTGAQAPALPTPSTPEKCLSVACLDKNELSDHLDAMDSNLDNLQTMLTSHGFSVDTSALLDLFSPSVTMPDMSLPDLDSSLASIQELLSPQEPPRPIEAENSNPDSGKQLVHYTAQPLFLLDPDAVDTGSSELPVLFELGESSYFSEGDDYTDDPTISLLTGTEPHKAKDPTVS
- procedure summary: decrease of HSF1-responsive luciferase luminescence – cell-based, NIH3T3, dose retest, confirmation (AID 2382);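 note: NIH3T3 fibroblasts with HSF1-driven luciferase reporter stressed by proteasome inhibitor MG132; luminescence from HSF1-driven luciferase expression after 8 hours of MG132 stress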
- Format: functional
Activity calls are given as the source filed them.
Would you kindly list EC50 for each of these molecules?

Prompt line: Annotate the molecule `OCCN(Cc1ccccc1)Cc1cccc(Cl)c1Cl` with its measured EC50.
Response line: > 195 µM (not active)

Prompt line: Provide only the value of recorded EC50 for `COc1cccc(-c2c(C(=O)N/N=C/c3ccc(C)s3)nnn2-c2nonc2N)c1`
Response line: > 195 µM (not active)

Prompt line: Return value of EC50 for input `CCN1CCN(Cc2ccc(NC(=O)c3ccc(C)c(NC(=O)c4cccc5[nH]ccc45)c3)cc2C(F)(F)F)CC1` , no commentary.
Response line: 2.79 µM (active)

Prompt line: Write down EC50 measured for item `CCOC(=O)N1CCN(C(=O)c2ccc(CS(=O)(=O)c3c(Cl)cccc3Cl)o2)CC1`
Response line: > 195 µM (not active)

Prompt line: Recall and state the measured EC50 for Cc1ccc(Cn2c(C3CCCN3c3nc(C)cs3)nc3cc(C(F)(F)F)ccc32)cc1 (stereo not given) .
Response line: > 195 µM (not active)

Prompt line: Supply EC50 value. Item: `Cc1ccc(/C=N/Nc2ccc(C(=O)O)cc2)s1`
Response line: < 0.16 µM (active)

Prompt line: Give recorded EC50. `O=C(O)c1cccc2cc(-c3ccccc3)oc(=O)c12`
Response line: > 195 µM (not active)

Prompt line: Indicate its recorded EC50; the molecule in question is `O=C(O)CCCNC(=O)CCCNC(=O)C(c1ccccc1)c1ccccc1`
Response line: > 195 µM (not active)

Prompt line: Dear colleague, please send me the reported EC50 for O=C(NC(=S)NC1C2CC3CC(C2)CC1C3)c1ccccc1 (stereo not given) when you can.
Response line: > 195 µM (not active)

Prompt line: Please list EC50 recorded for the molecule `COc1ccc(CNC(=O)CCCCCNC(=O)N2CCn3c2nc2ccccc23)cc1`
Response line: > 195 µM (not active)

Prompt line: Give the reported value of EC50 for this record: `CCCCCCc1cc2cc(S(=O)(=O)c3ccc(F)c(Cl)c3)c(=O)oc2cc1O`
Response line: 17.5 µM (active)

Prompt line: Give the reported value of EC50 for this record: `O=C(CSC(=S)N1CCOCC1)Nc1nc(-c2ccccc2)c(-c2ccccc2)o1`
Response line: > 195 µM (not active)

Prompt line: Answer with reported EC50 of `COc1ccc(-c2noc(CCC(=O)Nc3ccc(C)c(C)c3)n2)cc1`
Response line: > 195 µM (not active)

Prompt line: Could you please provide reported EC50 for `CCCC[C@@H](CNC)NC[C@H](Cc1ccc(O)cc1)NCCc1ccc(OCC)cc1` ? Thanks!
Response line: > 195 µM (not active)

Prompt line: Give a short answer stating reported EC50 for `O=C1C(=O)c2ccc(-c3ccccc3)cc2-c2ccccc21` .
Response line: 1.75 µM (active)

Prompt line: For the molecule `O=C(c1ccco1)N1CCN=C1SCc1ccccc1F` , give its measured EC50 value.
Response line: > 195 µM (not active)

Prompt line: Give the measured EC50 for Cc1ccc2c(c1)c1c(n2CC(O)CN2CCOCC2)CCCC1 (stereo not given)
Response line: > 195 µM (not active)

Prompt line: Note down EC50 recorded for `Cc1ccc(S(=O)(=O)N2CCN(S(C)(=O)=O)C2)cc1`
Response line: > 195 µM (not active)

Prompt line: Query EC50 for `O=C(CN1C(=O)c2ccccc2S1(=O)=O)NCc1cccs1`
Response line: > 195 µM (not active)

Prompt line: Please list EC50 recorded for the molecule `CCOC(=O)CSc1nc(C)cc(Oc2ccc(=O)n(C)n2)n1`
Response line: 28.1 µM (active)

###

- target: Replicative DNA helicase DnaB (Mycobacterium tuberculosis)
- procedure summary: DnaB intein splicing inhibitors, dose response, biochemical, cell-free fluorescence (AID 449749)
- Format: functional
Calls of active or inactive are those of the source.
Hi! Could you answer with just one of these? active, inactive

Prompt line: State the result this test recorded for `CC(C)c1nnc(NC(=O)c2nc(S(=O)(=O)Cc3ccccc3)ncc2Cl)s1` .
Response line: active

Prompt line: # fetch the recorded call for `O=C1C(Cl)=C(N2CCCCCC2)C(=O)N1c1ccccc1` here
Response line: inactive

Prompt line: Please let me know the test result on file for O=C(O)COc1ccccc1C(Nc1cccnc1)c1cc(Cl)c2cccnc2c1O (stereo not given) .
Response line: inactive

Prompt line: Could you kindly confirm the outcome this assay logged for `CCOc1cc(/C=C2\C(=O)N(CCC#N)N=C2C)ccc1OCC(N)=O` ?
Response line: active

Prompt line: I'd appreciate the recorded outcome for `O=C(c1cc(F)c(F)cc1Cl)N1CCN(c2ccc([N+](=O)[O-])c3ncccc23)CC1` from this test.
Response line: active

Prompt line: Status in this test for `Cc1n[nH]c(O)c1C(c1cc2c(cc1Br)OCO2)c1c(C)n[nH]c1O` ?
Response line: active

Prompt line: Fill in: this test's call for `CC(=O)O[C@@H]1C[C@H]2C(C)(C)C(=O)C=C[C@]2(C)[C@H]2CC[C@@]3(C)[C@H](c4ccoc4)OC(=O)[C@H]4O[C@]43[C@@]21C` is ___
Response line: active

Prompt line: Hi team, can someone confirm the assay call for `Fc1ccc(Oc2nc(-c3ccccc3)nnc2C(F)(F)F)cc1` ?
Response line: active

Prompt line: Record lookup: outcome of this test for `CN1CCN(Cc2cc(=O)oc3ccc(Cl)cc23)CC1` ?
Response line: inactive

Prompt line: Status in this test for `COC(=O)/C(=C1/Oc2cc(C)oc(=O)c2S1)C(F)(F)F` ?
Response line: inactive

Prompt line: Lab log entry: `Nc1ccc2[nH]c(CCCCc3nc4ccccc4[nH]3)nc2c1` — outcome as called in the assay?
Response line: inactive

Prompt line: Per the assay record, what outcome was assigned to O=C(c1cccs1)[C@@H]1[C@@H]2C(=O)N(Cc3ccc4c(c3)OCO4)C(=O)[C@@H]2C2c3ccccc3C=CN21 (stereo not given in full) ?
Response line: active

Prompt line: Please let me know the test result on file for `Cc1oc2c(c1C(=O)N1CCOCC1)C(=O)c1ccccc1C2=O` .
Response line: active

Prompt line: In this assay, the call recorded for `O=C(O)c1cccc(Cn2c(Cl)c(/C=N/Nc3ccccc3)sc2=O)c1` was what?
Response line: inactive

Data origin: ChEMBL document CHEMBL1201862
